# experimentSummary: Leakage marker sodium fluorescein transport, AP to BL, Caco-2 monolayer integrity
# Assay type: in vitro ADME
# experimentalConditions: human, 120 min
measure: Papp A→B at 120 min, 1 mM (×10⁻⁶ cm/s)
Entry rule: numbers only, all in ×10⁻⁶ cm/s.

Quick check: Papp A→B at 120 min, 1 mM of O=C1OC2(c3ccc(O)cc3Oc3cc(O)ccc32)c2ccccc21 [sodium fluorescein] ?
0.708

====

# experimentSummary: Bidirectional transport across the Caco-2 cell monolayer (LC/MS/MS)
# experimentalConditions: human, Caco-2
measure: Papp B→A at 180 min, 10 µM (×10⁻⁶ cm/s)
Entry rule: numbers only, all in ×10⁻⁶ cm/s.

Illustrative cases are given below, each with its answer.
INSERT INTO results (compound, measure, reported) VALUES
  ('C=C(CC[C@@H](C)[C@H]1CC[C@H]2C3=C(C(=O)[C@H](O)[C@]12C)[C@@]1(C)CC[C@@H](O)[C@@H](C)[C@@H]1CC3=O)[C@@H](C)C(=O)O [compound 5, 25R-antcin H]', 'Papp B→A at 180 min, 10 µM', 84.1),
  ('C=C(CC[C@@H](C)[C@H]1CC[C@H]2C3=C(C(=O)[C@H](O)[C@]12C)[C@@]1(C)CC[C@@H](O)[C@@H](C)[C@@H]1CC3=O)[C@H](C)C(=O)O [compound 6, 25S-antcin H]', 'Papp B→A at 180 min, 10 µM', 92);

Lab note: next compound to report on.
Quick check: Papp B→A at 180 min, 10 µM of C=C(CC[C@@H](C)[C@H]1CC[C@H]2C3=C(C(=O)C[C@]12C)[C@@]1(C)CCC(=O)[C@@H](C)[C@@H]1CC3=O)[C@@H](C)C(=O)O [compound 10, 25R-antcin B] ?
58.5

====

Recorded Papp A→B at 180 min, 25 µg/mL (extract) values for a group of molecules are listed next.
# experimentSummary: Bidirectional transport across the Caco-2 cell monolayer (LC/MS/MS)
# experimentalConditions: human, Caco-2
Entry rule: numbers only, all in ×10⁻⁶ cm/s.

INSERT INTO assay_data (molecule, reported) VALUES
  ('C=C(CC[C@@H](C)[C@H]1CC[C@H]2C3=C(C(=O)C[C@]12C)[C@@]1(C)CCC(=O)[C@@H](C)[C@@H]1CC3=O)[C@H](C)C(=O)O [compound 9, 25S-antcin B]', 26.5);

Lab note: next molecule to report on.
Quick check: Papp A→B at 180 min, 25 µg/mL (extract) of C=C(CC[C@@H](C)[C@H]1CC[C@H]2C3=C(C(=O)C[C@]12C)[C@@]1(C)CCC(=O)[C@@H](C)[C@@H]1C[C@@H]3O)[C@H](C)C(=O)O [compound 3, 25S-antcin C] ?
68.2

====

Recorded Papp B→A at 180 min, 25 µg/mL (extract) values for a group of compounds are listed next.
# experimentSummary: Bidirectional transport across the Caco-2 cell monolayer (LC/MS/MS)
# experimentalConditions: human, Caco-2
The number alone won't do; follow it with the unit.

INSERT INTO results (compound, reported) VALUES
  ('C=C(CC[C@@H](C)[C@H]1CC[C@H]2C3=C(C(=O)C[C@]12C)[C@@]1(C)CCC(=O)[C@@H](C)[C@@H]1CC3=O)[C@@H](C)C(=O)O [compound 10, 25R-antcin B]', '38.6 ×10⁻⁶ cm/s');

Quick check: Papp B→A at 180 min, 25 µg/mL (extract) of C=C(CC[C@@H](C)[C@H]1CC[C@H]2C3=C(C(=O)[C@H](O)[C@]12C)[C@@]1(C)CC[C@@H](O)[C@@H](C)[C@@H]1CC3=O)[C@H](C)C(=O)O [compound 6, 25S-antcin H] ?
30.5 ×10⁻⁶ cm/s

Quick check: Papp B→A at 180 min, 25 µg/mL (extract) of C=C(CC[C@@H](C)[C@H]1CC[C@H]2C3=C(C(=O)C[C@]12C)[C@@]1(C)CCC(=O)[C@@H](C)[C@@H]1C[C@@H]3O)[C@@H](C)C(=O)O [compound 4, 25R-antcin C] ?
51.3 ×10⁻⁶ cm/s

Quick check: Papp B→A at 180 min, 25 µg/mL (extract) of C=C(CC[C@@H](C)[C@H]1CC[C@H]2C3=C(C(=O)C[C@]12C)[C@@]1(C)CCC(=O)[C@@H](C)[C@@H]1C[C@@H]3O)[C@H](C)C(=O)O [compound 3, 25S-antcin C] ?
49.9 ×10⁻⁶ cm/s

Quick check: Papp B→A at 180 min, 25 µg/mL (extract) of C=C(CC[C@@H](C)[C@H]1CC[C@H]2C3=C(C(=O)C[C@]12C)[C@@]1(C)CCC(=O)[C@@H](C)[C@@H]1CC3=O)[C@H](C)C(=O)O [compound 9, 25S-antcin B] ?
27.6 ×10⁻⁶ cm/s

Quick check: Papp B→A at 180 min, 25 µg/mL (extract) of C=C(CC[C@@H](C)[C@H]1CC[C@H]2C3=C(C(=O)[C@H](O)[C@]12C)[C@@]1(C)CC[C@@H](O)[C@@H](C)[C@@H]1CC3=O)[C@@H](C)C(=O)O [compound 5, 25R-antcin H] ?
34.7 ×10⁻⁶ cm/s

====

# experimentSummary: Bidirectional transport across the Caco-2 cell monolayer (LC/MS/MS)
# experimentalConditions: human, Caco-2
measure: Papp A→B at 30 min (×10⁻⁶ cm/s)
Entry rule: numbers only, all in ×10⁻⁶ cm/s.

Quick check: Papp A→B at 30 min of CC(C)NCC(O)COc1cccc2ccccc12 (stereo not shown) [propranolol, reference compound] ?
35.1

====

# experimentSummary: Bidirectional transport across the Caco-2 cell monolayer (LC/MS/MS)
# experimentalConditions: human, Caco-2
measure: Papp A→B at 90 min (×10⁻⁶ cm/s)
Entry rule: numbers only, all in ×10⁻⁶ cm/s.

Quick check: Papp A→B at 90 min of CC(C)NCC(O)COc1cccc2ccccc12 (stereo not shown) [propranolol, reference compound] ?
34.3

====

Recorded efflux ratio at 180 min, 25 µg/mL values for a group of compounds are listed next.
# experimentSummary: in vitro
# experimentalConditions: human, Caco-2, Efflux ratio P BA/P AB
Returns: the value as a bare number; no unit string appended.

INSERT INTO measurements (compound, measure, reported) VALUES
  ('C=C(CC[C@@H](C)[C@H]1CC[C@H]2C3=C(C(=O)C[C@]12C)[C@@]1(C)CC[C@@H](O)[C@](C)(O)[C@@H]1C[C@@H]3O)[C@H](C)C(=O)O [compound 1, 25S-antcin K]', 'efflux ratio at 180 min, 25 µg/mL', 0.68),
  ('C=C(CC[C@@H](C)[C@H]1CC[C@H]2C3=C(C(=O)C[C@]12C)[C@@]1(C)CCC(=O)[C@@H](C)[C@@H]1CC3)C(C)C(=O)O (mixture of isomers) [compound 11, (R/S)-antcin A]', 'efflux ratio at 180 min, 25 µg/mL', 0.6),
  ('CC(C)=CCC[C@@H](C(=O)O)[C@H]1C[C@H](O)[C@@]2(C)C3=CC[C@H]4C(C)(C)[C@H](O)CC[C@]4(C)C3=CC[C@]12C [compound 7]', 'efflux ratio at 180 min, 25 µg/mL', 0.96);

Quick check: efflux ratio at 180 min, 25 µg/mL of C=C(CC[C@@H](C)[C@H]1CC[C@H]2C3=C(C(=O)C[C@]12C)[C@@]1(C)CC[C@@H](O)[C@](C)(O)[C@@H]1C[C@@H]3O)[C@@H](C)C(=O)O [compound 2, 25R-antcin K] ?
0.78

====

# experimentSummary: in vitro
# experimentalConditions: human, Caco-2
Recorded Papp B→A at 180 min, 25 µg/mL (extract) values for a group of compounds are listed next.
Entry rule: numbers only, all in ×10⁻⁶ cm/s.

Illustrative cases are given below, each with its answer.
INSERT INTO results (compound, measure, reported) VALUES
  ('C=C(CC[C@@H](C)[C@H]1CC[C@H]2C3=C(C(=O)C[C@]12C)[C@@]1(C)CC[C@@H](O)[C@](C)(O)[C@@H]1C[C@@H]3O)[C@H](C)C(=O)O [compound 1, 25S-antcin K]', 'Papp B→A at 180 min, 25 µg/mL (extract)', 53.2),
  ('C=C(CC[C@@H](C)[C@H]1CC[C@H]2C3=C(C(=O)C[C@]12C)[C@@]1(C)CCC(=O)[C@@H](C)[C@@H]1CC3)C(C)C(=O)O (mixture of isomers) [compound 11, (R/S)-antcin A]', 'Papp B→A at 180 min, 25 µg/mL (extract)', 47.9),
  ('C=C(CC[C@@H](C)[C@H]1CC[C@H]2C3=C(C(=O)C[C@]12C)[C@@]1(C)CC[C@@H](O)[C@](C)(O)[C@@H]1C[C@@H]3O)[C@@H](C)C(=O)O [compound 2, 25R-antcin K]', 'Papp B→A at 180 min, 25 µg/mL (extract)', 44.8);

Quick check: Papp B→A at 180 min, 25 µg/mL (extract) of "CC(C)=CCC[C@@H](C(=O)O)[C@H]1C[C@H](O)[C@@]2(C)C3=CC[C@H]4C(C)(C)[C@H](O)CC[C@]4(C)C3=CC[C@]12C" ?
35.7
